- Tested on: Escherichia coli
- Test details: Binding affinity to closed circular superhelical Escherichia coli ColE1 DNA by viscometric titrations
The source made the active and inactive calls. No cut-off for these calls is given here.
Outcomes: label 1 = active, label 0 = inactive

>  <Compound>
NCCCCN

>  <Class label>
label 0

$$$$
>  <Compound>
CCN(CC)CCCC(C)Nc1ccnc2cc(Cl)ccc12 (stereo unspecified)

>  <Class label>
label 0

$$$$
>  <Compound>
CCN(CC)CCCC(C)Nc1c2ccc(Cl)cc2nc2ccc(OC)cc12 (stereo unspecified)

>  <Class label>
label 1

$$$$
>  <Compound>
NC(=O)c1cc(C(O)C2CCCCN2)c2cccc(C(F)(F)F)c2n1 (stereo unspecified)

>  <Class label>
label 0

$$$$
>  <Compound>
O[C@@H](c1cc(C(F)(F)F)nc2c(C(F)(F)F)cccc12)[C@H]1CCCCN1 (relative stereo)

>  <Class label>
label 0

$$$$
>  <Compound>
OC(c1cc(C(F)(F)F)nc2c(F)cccc12)C1CCCCN1 (stereo unspecified)

>  <Class label>
label 0

$$$$

The measurements presented in this section are drawn from ChEMBL document CHEMBL3272174.
